test: refractive index (Na D-line) (dimensionless); conditions: 283.15 K; 101.33 kPa; Liquid; Standard Abbe refractometry
Measurement Type: refractive index

[
  {
    "Compound": "CC(=O)[O-].CCn1cc[nH+]c1 [1-ethyl-1H-imidazolium acetate]",
    "Measurement Type": "refractive index",
    "Readout Value": 1.46347
  },
  {
    "Compound": "CC(=O)[O-].CCCC[N+]1(C)CCCC1 [1-butyl-1-methylpyrrolidinium acetate]",
    "Measurement Type": "refractive index",
    "Readout Value": 1.47263
  },
  {
    "Compound": "CC(=O)[O-].CCCCn1cc[n+](C)c1 [1-butyl-3-methylimidazolium acetate]",
    "Measurement Type": "refractive index",
    "Readout Value": 1.49269
  },
  {
    "Compound": "CC(=O)O.CCN(C)C [N,N-dimethylethanamine acetate]",
    "Measurement Type": "refractive index",
    "Readout Value": 1.42303
  },
  {
    "Compound": "CC(=O)[O-].CCn1cc[n+](C)c1 [1-ethyl-3-methylimidazolium acetate]",
    "Measurement Type": "refractive index",
    "Readout Value": 1.50402
  }
]
